From: patent US12448389B2

molecular target: SMARCA2-HiBiT (Homo sapiens, UniProt P51531); construct: SMARCA2-HiBiT knock-in Hela monoclonal cell (CS302366); host or cells: HeLa monoclonal knock-in line (CRISPR HiBiT knock-in at the endogenous locus, heterozygous); assay: SMARCA2 HiBiT degradation assay in HeLa cells; format: cell-based; conditions: 18 hours incubation, read-out: HeLa_HiBit-SM2 DC50
Sequence (P51531 whole entry): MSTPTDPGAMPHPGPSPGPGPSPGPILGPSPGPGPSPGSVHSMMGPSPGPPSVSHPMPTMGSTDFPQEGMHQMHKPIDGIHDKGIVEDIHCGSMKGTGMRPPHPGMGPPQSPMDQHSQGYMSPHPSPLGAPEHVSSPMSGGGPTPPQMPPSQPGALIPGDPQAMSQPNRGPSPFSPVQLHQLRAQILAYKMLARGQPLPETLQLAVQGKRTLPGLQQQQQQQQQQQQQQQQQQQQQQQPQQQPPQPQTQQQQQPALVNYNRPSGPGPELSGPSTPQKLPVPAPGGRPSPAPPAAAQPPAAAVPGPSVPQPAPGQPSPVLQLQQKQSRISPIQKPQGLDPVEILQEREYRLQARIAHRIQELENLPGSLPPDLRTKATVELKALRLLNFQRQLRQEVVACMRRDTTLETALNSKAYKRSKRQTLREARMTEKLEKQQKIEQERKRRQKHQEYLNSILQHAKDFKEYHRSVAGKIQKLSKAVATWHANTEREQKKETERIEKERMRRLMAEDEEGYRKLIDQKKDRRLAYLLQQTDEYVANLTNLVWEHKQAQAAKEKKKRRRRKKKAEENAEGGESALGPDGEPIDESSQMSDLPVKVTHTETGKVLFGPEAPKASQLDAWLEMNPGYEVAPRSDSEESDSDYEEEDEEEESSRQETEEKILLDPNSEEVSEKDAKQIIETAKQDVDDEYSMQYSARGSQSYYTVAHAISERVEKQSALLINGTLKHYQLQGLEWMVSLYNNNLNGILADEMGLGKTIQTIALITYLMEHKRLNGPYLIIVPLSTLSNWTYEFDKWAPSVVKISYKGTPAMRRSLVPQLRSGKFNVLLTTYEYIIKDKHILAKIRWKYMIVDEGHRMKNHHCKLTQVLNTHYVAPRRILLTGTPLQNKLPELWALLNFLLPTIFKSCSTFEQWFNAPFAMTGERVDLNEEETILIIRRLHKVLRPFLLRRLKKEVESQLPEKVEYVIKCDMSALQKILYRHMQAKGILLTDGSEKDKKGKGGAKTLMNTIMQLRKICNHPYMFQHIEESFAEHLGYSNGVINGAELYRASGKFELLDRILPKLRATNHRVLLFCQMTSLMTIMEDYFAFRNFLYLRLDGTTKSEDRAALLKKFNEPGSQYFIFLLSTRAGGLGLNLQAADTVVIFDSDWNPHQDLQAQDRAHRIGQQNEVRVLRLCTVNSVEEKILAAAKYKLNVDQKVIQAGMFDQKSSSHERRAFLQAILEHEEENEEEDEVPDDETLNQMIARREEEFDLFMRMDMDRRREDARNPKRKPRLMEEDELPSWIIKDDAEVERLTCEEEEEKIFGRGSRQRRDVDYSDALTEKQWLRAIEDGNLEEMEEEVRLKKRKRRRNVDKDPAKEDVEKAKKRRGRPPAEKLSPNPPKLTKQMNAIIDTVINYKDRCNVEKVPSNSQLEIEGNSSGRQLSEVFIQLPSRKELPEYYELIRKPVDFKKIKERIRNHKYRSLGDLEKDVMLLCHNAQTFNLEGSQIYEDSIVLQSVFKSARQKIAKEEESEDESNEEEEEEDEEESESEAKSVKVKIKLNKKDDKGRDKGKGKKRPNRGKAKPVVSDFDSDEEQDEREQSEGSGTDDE
Kindly supply the reported DC50 values for the records listed here.

Field: example entries. Status: answers known.
[
  {
    "compound": "CN(CCN1CCC(N2CCN3c4cc(-c5ccccc5O)nnc4NC[C@H]3C2)CC1)c1cccc2c1C(=O)N(C1CCC(=O)NC1=O)C2=O (stereo partly drawn)",
    "DC50": "< 10 nM"
  },
  {
    "compound": "CC1CN(CC2CCN(c3ccc4c(c3)C(=O)N(C3CCC(=O)NC3=O)C4=O)CC2)CCC1CN1CCN2c3cc(-c4ccccc4O)nnc3NC[C@H]2C1 (stereo partly drawn)",
    "DC50": "< 10 nM"
  }
]

Now let's try a different one.
Field request: DC50 | item: O=C1CCC(N2C(=O)c3ccc(N4CCN(CC5CCC(CN6CCN7c8cc(-c9ccccc9O)nnc8NC[C@H]7C6)CC5)CC4)cc3C2=O)C(=O)N1 (stereo partly drawn)
< 10 nM
